Experiment description: Bioavailability of esters of methionine after spot dose to cows (Example 2)
Format: in vivo, cow
Experimental parameters: bovine, in vivo, 5 h
Endpoint name: [met] methionine concentration in blood plasma

What value of [met] methionine concentration in blood plasma has been recorded for this entry: CCCCCCOC(=O)[C@@H](N)CCSC [n-hexyl methioninate]
1.06 mg/100 g of blood plasma

Recorded [met] methionine concentration in blood plasma for CCOC(=O)[C@@H](N)CCSC.Cl [Methionine ethyl ester hydrochloride, methionine ethyl ester hydrochloride] , please?
2.00 mg/100 g of blood plasma

Which measured [met] methionine concentration in blood plasma value corresponds to CSCC[C@H](N)C(=O)OC(C)(C)C [Tertiary butyl methioninate, tertiary butyl methioninate] ?
4.39 mg/100 g of blood plasma

May I ask what [met] methionine concentration in blood plasma has been recorded for CSCC[C@H](N)C(=O)OC(C)C [Isopropyl methioninate, isopropyl methioninate] ?
2.22 mg/100 g of blood plasma

---

Experiment description: Bioavailability of esters of methionine after spot dose to cows (Example 2)
Assay type: in vivo, cow
Experimental parameters: bovine, in vivo, 0 h
Endpoint name: [met] methionine concentration in blood plasma

COC(=O)[C@@H](N)CCSC.Cl [Methionine methyl ester hydrochloride, methionine methyl ester hydrochloride] : 0.41 mg/100 g of blood plasma
CSCC[C@H](N)C(=O)OC(C)(C)C [Tertiary butyl methioninate, tertiary butyl methioninate] : 0.37 mg/100 g of blood plasma
CCCOC(=O)[C@@H](N)CCSC [n-propyl methioninate] : 0.32 mg/100 g of blood plasma
CCCCCCOC(=O)[C@@H](N)CCSC [n-hexyl methioninate] : 0.31 mg/100 g of blood plasma
CCCCOC(=O)[C@@H](N)CCSC [n-butyl methioninate] : 0.32 mg/100 g of blood plasma

Sample CCCCCCCCCCCCCCCCCCOC(=O)[C@@H](N)CCSC [n-octadecyl methioninate] — what was its [met] methionine concentration in blood plasma?
0.37 mg/100 g of blood plasma

Requested read-out: [met] methionine concentration in blood plasma. Entry: CCC(C)OC(=O)[C@@H](N)CCSC (stereo partly drawn) [sec butyl methioninate]
0.35 mg/100 g of blood plasma

What measured [met] methionine concentration in blood plasma goes with COC(=O)[C@@H](N)CCSC [Methyl methioninate, methyl methioninate] ?
0.34 mg/100 g of blood plasma

GET /values?readout=[met] methionine concentration in blood plasma&item= CCOC(=O)[C@@H](N)CCSC.Cl [Methionine ethyl ester hydrochloride, methionine ethyl ester hydrochloride]
0.36 mg/100 g of blood plasma

Could you tell me which [met] methionine concentration in blood plasma is on file for CSCC[C@H](N)C(=O)OC1CCCCC1 [Cyclohexyl methioninate, cyclohexyl methioninate] ?
0.29 mg/100 g of blood plasma

I am curious: what [met] methionine concentration in blood plasma value has been reported for CCCCCCCCCCCCOC(=O)[C@@H](N)CCSC [Dodecyl methioninate, dodecyl methioninate] ?
0.33 mg/100 g of blood plasma

Fill blank: measured [met] methionine concentration in blood plasma of the molecule CSCC[C@H](N)C(=O)OC(C)C [Isopropyl methioninate, isopropyl methioninate] is ____.
0.33 mg/100 g of blood plasma

---

Experiment description: in vivo
Experimental parameters: bovine, Blood plasma HMB concentration
Method: The kinetics of availability of methionine and HMB in the bloodstream were determined for the isopropyl ester of the hydroxy analogue of methionine and compared with the hydroxy analogue of methionine (a compound not according to the present invention). The procedure of Example 2 was repeated wherein samples of the isopropyl ester of the hydroxy analogue (69 g) and the hydroxy analogue (Alimet™-57 g) were given to four cows.
Endpoint name: concentration at 30 min (ng/g)
Write the answer as a number in ng/g, unit excluded.

So what does the record say about concentration at 30 min for CSCCC(O)C(=O)O (stereo not shown) [HMB, 2-hydroxy-4-(methylthio) butanoic acid] ?
0

---

Experiment description: Bioavailability of esters of methionine after spot dose to cows (Example 2)
Format: in vivo, cow
Experimental parameters: bovine, in vivo, 2 h
Here, each record is paired with measured [met] methionine concentration in blood plasma data.

// lookup [met] methionine concentration in blood plasma for COC(=O)[C@@H](N)CCSC [Methyl methioninate, methyl methioninate]
3.87 mg/100 g of blood plasma

---

Experiment description: Bioavailability of esters of methionine after spot dose to cows (Example 2)
Format: in vivo, cow
Experimental parameters: bovine, in vivo, 7 h
Below: a set of entries, each annotated with reported [met] methionine concentration in blood plasma.

CSCC[C@H](N)C(=O)OC1CCCCC1 [Cyclohexyl methioninate, cyclohexyl methioninate] : 1.55 mg/100 g of blood plasma
CCCCCCCCCCCCCCCCCCOC(=O)[C@@H](N)CCSC [n-octadecyl methioninate] : 0.31 mg/100 g of blood plasma
CCCCCCOC(=O)[C@@H](N)CCSC [n-hexyl methioninate] : 1.07 mg/100 g of blood plasma

For the next question, use this compound.
[met] methionine concentration in blood plasma lookup needed for CCCCCCCCCCCCOC(=O)[C@@H](N)CCSC [Dodecyl methioninate, dodecyl methioninate] , thanks.
0.45 mg/100 g of blood plasma

---

Experiment description: Bioavailability of esters of methionine after spot dose to cows (Example 2)
Assay type: in vivo, cow
Experimental parameters: bovine, in vivo, 3 h
Endpoint name: [met] methionine concentration in blood plasma

CCOC(=O)[C@@H](N)CCSC.Cl [Methionine ethyl ester hydrochloride, methionine ethyl ester hydrochloride] : 2.30 mg/100 g of blood plasma
CCCCOC(=O)[C@@H](N)CCSC [n-butyl methioninate] : 0.63 mg/100 g of blood plasma
CCCCCCCCCCCCCCCCCCOC(=O)[C@@H](N)CCSC [n-octadecyl methioninate] : 0.34 mg/100 g of blood plasma
COC(=O)[C@@H](N)CCSC [Methyl methioninate, methyl methioninate] : 3.25 mg/100 g of blood plasma
CCCCCCCCCCCCOC(=O)[C@@H](N)CCSC [Dodecyl methioninate, dodecyl methioninate] : 0.37 mg/100 g of blood plasma
CSCC[C@H](N)C(=O)OC1CCCCC1 [Cyclohexyl methioninate, cyclohexyl methioninate] : 1.88 mg/100 g of blood plasma
CCCOC(=O)[C@@H](N)CCSC [n-propyl methioninate] : 1.55 mg/100 g of blood plasma
CSCC[C@H](N)C(=O)OC(C)(C)C [Tertiary butyl methioninate, tertiary butyl methioninate] : 4.98 mg/100 g of blood plasma

# get_value(readout='[met] methionine concentration in blood plasma', item= CSCC[C@H](N)C(=O)OC(C)C [Isopropyl methioninate, isopropyl methioninate] )
2.86 mg/100 g of blood plasma

Fill in the blank: the reported [met] methionine concentration in blood plasma of CCCCCCOC(=O)[C@@H](N)CCSC [n-hexyl methioninate] is ____.
0.94 mg/100 g of blood plasma

Entry under review: COC(=O)[C@@H](N)CCSC.Cl [Methionine methyl ester hydrochloride, methionine methyl ester hydrochloride] . Reported [met] methionine concentration in blood plasma?
1.27 mg/100 g of blood plasma

Report [met] methionine concentration in blood plasma for CCC(C)OC(=O)[C@@H](N)CCSC (stereo partly drawn) [sec butyl methioninate] please.
2.39 mg/100 g of blood plasma

---

Experiment description: Bioavailability of esters of methionine after spot dose to cows (Example 2)
Format: in vivo, cow
Experimental parameters: bovine, in vivo, 7 h
Endpoint name: [met] methionine concentration in blood plasma

COC(=O)[C@@H](N)CCSC [Methyl methioninate, methyl methioninate] : 2.51 mg/100 g of blood plasma
CSCC[C@H](N)C(=O)OC(C)(C)C [Tertiary butyl methioninate, tertiary butyl methioninate] : 4.19 mg/100 g of blood plasma
CCC(C)OC(=O)[C@@H](N)CCSC (some centres unmarked) [sec butyl methioninate] : 1.56 mg/100 g of blood plasma
CSCC[C@H](N)C(=O)OC(C)C [Isopropyl methioninate, isopropyl methioninate] : 1.93 mg/100 g of blood plasma
CCCOC(=O)[C@@H](N)CCSC [n-propyl methioninate] : 1.14 mg/100 g of blood plasma
COC(=O)[C@@H](N)CCSC.Cl [Methionine methyl ester hydrochloride, methionine methyl ester hydrochloride] : 1.22 mg/100 g of blood plasma
CCOC(=O)[C@@H](N)CCSC.Cl [Methionine ethyl ester hydrochloride, methionine ethyl ester hydrochloride] : 1.43 mg/100 g of blood plasma

Continue with the compound presented below.
[met] methionine concentration in blood plasma lookup needed for CCCCOC(=O)[C@@H](N)CCSC [n-butyl methioninate] , thanks.
0.61 mg/100 g of blood plasma

---

Experiment description: Bioavailability of esters of methionine after spot dose to cows (Example 2)
Type: in vivo, cow
Experimental parameters: bovine, in vivo, 2 h
Endpoint name: [met] methionine concentration in blood plasma

CCCCCCCCCCCCOC(=O)[C@@H](N)CCSC [Dodecyl methioninate, dodecyl methioninate] : 0.37 mg/100 g of blood plasma
CCC(C)OC(=O)[C@@H](N)CCSC (stereo partly drawn) [sec butyl methioninate] : 2.49 mg/100 g of blood plasma

Turning now to a further record.
Please report the recorded [met] methionine concentration in blood plasma for CCOC(=O)[C@@H](N)CCSC.Cl [Methionine ethyl ester hydrochloride, methionine ethyl ester hydrochloride] .
2.60 mg/100 g of blood plasma

FYI, the data here is from patent US6872749B2.
